- Measurement Target: CD209 antigen (Homo sapiens, UniProt Q9NNX6)
- Sequence (Q9NNX6 whole entry): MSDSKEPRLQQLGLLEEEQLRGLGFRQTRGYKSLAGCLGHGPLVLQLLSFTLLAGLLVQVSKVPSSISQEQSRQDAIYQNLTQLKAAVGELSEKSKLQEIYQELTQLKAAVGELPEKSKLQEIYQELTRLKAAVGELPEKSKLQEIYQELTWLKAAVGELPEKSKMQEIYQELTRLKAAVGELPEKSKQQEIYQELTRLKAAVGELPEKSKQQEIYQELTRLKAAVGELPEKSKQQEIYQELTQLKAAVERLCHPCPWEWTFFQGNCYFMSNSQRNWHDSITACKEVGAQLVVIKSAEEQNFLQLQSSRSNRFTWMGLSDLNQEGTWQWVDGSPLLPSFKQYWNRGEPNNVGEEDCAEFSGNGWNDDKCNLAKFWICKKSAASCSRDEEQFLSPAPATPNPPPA
Quantity: pIC50
Numbers only, as −log10 of the molar value.

Please give the measured pIC50 for this compound: COC(=O)[C@H]1C[C@H](OCCN=[N+]=[N-])[C@@H](O[C@H]2O[C@H](CN)[C@@H](O)[C@H](O)[C@@H]2O)C[C@@H]1C(=O)OC
3.32

----------
- Measurement Target: Type 1 fimbrin D-mannose specific adhesin (Escherichia coli K-12, UniProt P08191)
- Sequence (P08191 whole entry): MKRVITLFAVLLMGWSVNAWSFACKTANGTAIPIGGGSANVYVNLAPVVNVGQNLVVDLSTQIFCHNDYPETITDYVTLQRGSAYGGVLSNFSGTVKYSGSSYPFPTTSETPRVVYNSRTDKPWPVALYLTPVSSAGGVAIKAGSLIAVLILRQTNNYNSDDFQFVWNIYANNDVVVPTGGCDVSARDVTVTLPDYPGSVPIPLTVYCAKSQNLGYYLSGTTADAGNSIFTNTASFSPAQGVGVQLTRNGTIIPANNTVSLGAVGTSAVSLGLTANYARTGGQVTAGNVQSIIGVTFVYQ
Quantity: Kd (nM)
Give bare numbers, in nM.

Please give the measured Kd for this compound: OC[C@H]1O[C@H](Oc2ccc(-c3ccccc3)cc2)[C@@H](O)[C@@H](O)[C@@H]1O
1100
